System: monocytic THP1 cells infected with HIV VSV-G pseudotyped GFP-NEF reporter virus
Experiment: cells
Format: cell-based
Details: Human immunodeficiency virus 1, THP-1, 24 h
assay.metric: EC50 (nM)
One number for each entry, in nM.

1) Cc1cc(/C=C/C#N)cc(C)c1Oc1nc(NC23CC(C#N)(C2)C3)nc2c1c(Cl)nn2C (single isomer, unassigned) :: 360

Would you mind giving EC50 for every compound in the list below?
1. Cc1cc(/C=C/C#N)cc(C)c1Oc1nc(NC23CC(C#N)(C2)C3)nc2nc(C)n(C)c12
2. Cc1cc(/C=C/C#N)cc(C)c1Oc1nc(NC23CC(C#N)(C2)C3)nc2c1C(C)(O)N(C)C2=O (stereo not drawn)
3. Cc1cc(/C=C/C#N)cc(C)c1Oc1nc(NC23CC(C#N)(C2)C3)nc2nc(-c3cc[nH]n3)[nH]c12
4. C=Cc1n[nH]c2nc(NC34CC(C#N)(C3)C4)nc(Oc3c(C)cc(/C=C/C#N)cc3C)c12
5. Cc1cc(/C=C/C#N)cc(C)c1Oc1nc(NC23CC(C#N)(C2)C3)nc2c1C1(C)O[C@@H](C)CCN1C2=O (stereo partly drawn)
6. Cc1cc(/C=C/C#N)cc(C)c1C(=O)c1nc(NC23CC(C#N)(C2)C3)nc2nn(C)cc12

[reply]
1: 32.5; 2: 73; 3: 62.8; 4: 182; 5: 34.8; 6: 113

Give EC50 for all compounds that follow.
1. Cc1cc(/C=C/C#N)cc(C)c1Oc1nc(NC23CC(C#N)(C2)C3)nc2[nH]c(C)c(C)c12
2. Cc1nc2nc(NC34CC(C#N)(C3)C4)nc(Oc3c(C)cc(/C=C/C#N)cc3C)c2s1

[reply]
[232, 61.7]

Record EC50 for all entries; do not skip any.
1. CCc1cc(/C=C/C#N)cc(Cl)c1Oc1nc(NC23CC(C#N)(C2)C3)nc2[nH]nc(C)c12
2. Cc1cc(/C=C/C#N)cc(C)c1Oc1nc(NC23CC(C#N)(C2)C3)nc2c1C1(C)OC[C@H](C)CN1C2=O (single isomer, unassigned)
3. Cc1cc(/C=C/C#N)cc(C)c1Oc1nc(NC23CC(C#N)(C2)C3)nc2[nH]c(=O)[nH]c12
4. Cc1cc(/C=C/C#N)cc(C)c1Oc1nc(NC23CC(C#N)(C2)C3)nc2c(=O)n3n(c12)CCC3

[reply]
1: 46.7; 2: 22.3; 3: 68.3; 4: 55.3

Would you be so kind as to report EC50 for each listed record?
1. Cc1cc(/C=C/C#N)cc(C)c1Oc1nc(NC23CC(C#N)(C2)C3)nc2c1C(C)N(c1cnn(C(C)C)c1)C2=O (stereo not drawn)
2. Cc1cc(/C=C/C#N)cc(C)c1Oc1nc(NC23CC(C#N)(C2)C3)nc2nn(CC#N)cc12

[reply]
1: 84.4; 2: 107

###

Could you please report measured pEC50 for the items listed next?
Test system: monocytic THP1 cells infected with HIV VSV-G pseudotyped GFP-NEF reporter virus
Assay: cells
Format: cell-based
Settings: Human immunodeficiency virus 1, THP-1, 24 h
Answers are plain numbers, as −log10 of the molar value.

1) Cc1cc(/C=C/C#N)cc(C)c1Oc1nc(NC23CC(C#N)(C2)C3)nc2c1nc(C)n2CCC#N [Compound 57] :: 6.83

List the reported pEC50 of each compound below.
1. Cc1cc(/C=C/C#N)cc(C)c1Oc1nc(NC23CC(C#N)(C2)C3)nc2c1c(C)nn2C [Compound 148]
2. Cc1cc(/C=C/C#N)cc(C)c1Oc1nc(NC23CC(C#N)(C2)C3)nc2[nH]nc(C#N)c12 [Compound 112]
3. Cc1cc(/C=C/C#N)cc(C)c1Oc1nc(NC23CC(C#N)(C2)C3(F)F)nc2nc3n(c12)CCCO3 [Compound 188]
4. Cc1cc(/C=C/C#N)cc(C)c1Oc1nc(NC23CC(C#N)(C2)C3)nc2nnn(C)c12 [Compound 81]
5. Cc1cc(/C=C/C#N)cc(C)c1Oc1nc(NC23CC(C#N)(C2)C3)nc2c1[C@H](C)N(C1CC1)C2=O [Compound 181]
6. Cc1cc(/C=C/C#N)cc(C)c1Oc1nc(NC23CC(C#N)(C2)C3)nc2c1C(C)N(c1cnn(C3CCC3)c1)C2=O (centres unmarked) [Example 227]
7. Cc1cc(/C=C/C#N)cc(C)c1Oc1nc(NC23CC(C#N)(C2)C3)nc2[nH]cc(C)c12 [Compound 302]
8. Cc1cc(/C=C/C#N)cc(C)c1Oc1nc(NC23CC(C#N)(C2)C3)nc2nc(C(F)F)n(C)c12 [Compound 25]

[reply]
7.32
6.13
7.15
7.45
7.69
6.94
6.68
7.43
